The values you see were collected from the supplement of paper PMC9170038.

system: MS2 coat protein; test: apparent KD of MS2 coat protein; designed switch direction (-1 OFF switch, 1 ON switch): -1; higher = weaker reporter binding; details: Eterna round: R95; input ligand: microRNA oligo, concentration not stated
Entries annotated with measured apparent KD of MS2 coat protein

biosequence	apparent KD of MS2 coat protein
GGCAGCUCAGGAUAUAGUUAAAACGACAUGAGGAUCACCCAUGUGACUGAUAUGCGGCGCCUAGAAGGGAGGUGCC [Xeusisso] (puzzle: Exclusion 5)	14.6 nM
GAAAAGGUAGGAUAUACGAAAAAAAAGGGUAGAAAAAUAACACAUGAGGAUCACCCAUGUAGAAGGACCAAAAG [salish99_ex2_r3_074] (puzzle: Exclusion 2)	23 nM
AAGAAACAUGAGGAUCACCCAUGUGAGGAUAUGACCAAGAAAAGAAAAGAAAGAAGAGUCAGAAGGCACAAAGG [salish99-ex1_r3_066] (puzzle: Exclusion 1)	56.6 nM
AGAAAUGCCCAUGGCCACAAGCUCUUUGCUUGUCUUACUACAUGAGGAUCACCCAUGUAACAUGGGCUCCUGAUAAU [Been] (puzzle: Sensor v3, turn-off variant 2)	9.19 nM
GUUAAGGUAGGAUAUACGAUAAUAUAGGGUAGAUAUAGAACACAUGAGGAUCACCCAUGUAGAAGGACCAAUUG [Mat - Exclusion 2 - Mod of my Tesla design - D54] (puzzle: Exclusion 2)	28.6 nM
AUACCACGAGGAUAUCGUCUAUUCCACAUGAGGAUCACCCAUGUUAUCCAUGUUUCGUUUCGAGAAGGCGUGUUUU [JR_E5_Sub075] (puzzle: Exclusion 5)	54.1 nM
AUGUUACAUGAGGAUCACCCAUGUCAGGAUAUCUAUCAUAGCAUAGAAAUAUGCGGGUAGAGAAGGGACUAUCC [ChP Ext 10-04-2015 #5] (puzzle: Exclusion 1)	14.7 nM
GUCACUAGAGGAUAUACAAUGGUAUAUGAUCCUAGUGACAAACAUGAGGAUCACCCAUGUAGAAGGCUAGUAAA [Exclusion 2 - 2] (puzzle: Exclusion 2)	28.3 nM
CCGGUAUAGGAGGAUAUAGGAGUCGAUAGACACCUAGAAGGCCUGACAUGAGGAUCACCCAUGUGUCCUUCCGG [Fiskers Ex 6 - 95] (puzzle: Exclusion 6)	17.7 nM
AAACGGCGGACCGUGGCUUUUUGCUCGUCUUGUGCUUCGACAUGAGGAUCACCCAUGUGGUGGUGGUCCGUUGUAAA [Grok-var2-15 mod JAL] (puzzle: Sensor v3, turn-off variant 2)	40.3 nM
UAUUAGCAAGCAAGAUCCCACAUGAGGAUCACCCAUGUGCUCGUCUUAUAAGGUACUGUGACGAAAGUCACGGUACC [Sensor 3, v1 - 83] (puzzle: Sensor v3, turn-off variant 1)	1080 nM

====

system: MS2 coat protein; test: apparent KD of MS2 coat protein; designed switch direction (-1 OFF switch, 1 ON switch): -1; higher = weaker reporter binding; conditions: input ligand: FMN 200 uM
# binarize apparent KD of MS2 coat protein: threshold 80 nM inclusive, high side class 1, low side class 0

biosequence	category_label
ACAUGUAAUGCAGGAUAUCGGACACAUGAGGAUCACCCAUGUGACCUGAGGUAUUGCUAAGAGUCUGAGAAGGGUAUGUACAUG [Ex NG2 #51] (Eterna round: R96, puzzle: Exclusion NG 2)	class 0
UGAUUGUUUAACAGAUUAUACAUGAGGAUCACCCAUGUAGGUCCUACGUGCACAUUAUGCAGCUCGUCUUAUUCCCA [Sensor-V1 #72] (Eterna round: R97, puzzle: Sensor, turn-off variant 1)	class 0
ACAAGACAUGAGGAUCACCCAUGUGGUCGGAUGUCAAAGACCGAGGAUAUCAGCGACUGCGCCGCUGAGAAGGCGGAUGGUGCU [Telaed] (Eterna round: R96, puzzle: Exclusion NG 3)	class 1
GGGCCACAUGAGGAUCACCCAUGUUAGGAUAUUUGUUCGGUGCUAUGAAUUCAAGGCUAGAGAAGGAACAGGGA [Eternabot (L1) Solution 46] (Eterna round: R97, puzzle: Exclusion 1)	class 0
ACACAGCAAGGAUAUACAUGAGGAUCACCCAUGUGGCGGCCGUUACGGUAGGACUAGUGUAGAAGGUGCAUUGG [EX3 #33] (Eterna round: R97, puzzle: Exclusion 3)	class 1
GCAAGCUUUAUCACUAUGAACAUGAGGAUCACCCAUGUAUAAGGUAUUACUUUUGGGCUCUUUAGUGCUCGUCUUAU [JR_STOV1_Sub033] (Eterna round: R97, puzzle: Sensor, turn-off variant 1)	class 0
CCGUGCACGCUCCGGUCCUACAUGAGGAUCACCCAUGUGGUCCGGUGGCGUGGGUCGCCGGACUUGGCUCGUCUUGU [salish99_S_TOV1_R5_018] (Eterna round: R97, puzzle: Sensor, turn-off variant 1)	class 0
GGGCUAGAAGGAGGAUAUUGAAGAUCCUCACGACAUGAGGAUCACCCAUGUGGUUUAGCAAGGGCCAAGAAGGCCUAUAGCCCA [Zasoan] (Eterna round: R96, puzzle: Exclusion NG 2)	class 1
ACAUGAGGAUCACCCAUGUCCGUCUGAUCUGUCUCGGCUGUCGAGGAUAUAGCCCGGUAUCCGCGCUAGAAGGUGGGAGUCGGA [Aenatbe mod 100] (Eterna round: R96, puzzle: Exclusion NG 3)	class 0
AGGUCACAUGAGGAUCACCCAUGUCAGGAUAUCGUCACUGGAGCCUCGGCUCCAGUGACGAGAAGGGAUAAUUA [E1/8-A2] (Eterna round: R97, puzzle: Exclusion 1)	class 0
CCAAGCUAAAUCAUUAACAACAUGAGGAUCACCCAUGUGUAAGCAAUUAUGUUUGGGCUCUUUAGUGCUCGUCUUAU [JR_STOV1_Sub043] (Eterna round: R97, puzzle: Sensor, turn-off variant 1)	class 0
CAGUACUGAGGAUAUACAUGAGGAUCACCCAUGUGAGAAAUACUAGUGAGGUCGAUUAGUAGAAGGCAGUACUG [Mat - Exclusion 3 - Eli Mod - D31] (Eterna round: R97, puzzle: Exclusion 3)	class 1
CCUAUGUUAGGAUAUCGGCAUCCCGGGCAGGUAGCCAGGACCGAGAAGGGACAUGAGGAUCACCCAUGUCAAAU [Eternabot (Original) Solution 4] (Eterna round: R97, puzzle: Exclusion 4)	class 0
GAAAAGCGAGGAUAUACUUGCAGUGUACCUCGGGUGAUCUCACUUGAGGAUCACCCAAGUAGAAGGCGCGAGGG [Quletibe] (Eterna round: R97, puzzle: Exclusion 2)	class 0
UUAUUGGUUGUGAGGAUAUCGGAUAGAUAGAUAUUCGAGAAGGCACAUGAGGAUCACCCAUGUGUGAUUGGAAA [JR_BMEx4_Sub047] (Eterna round: R97, puzzle: Brourd's mod of Exclusion 4)	class 1
AACCUUUAGUUAGGAUAUCGCAUCACCGUCAAGUGAGAAGGGACAUGAGGAUCACCCAUGUCUUCCGUGGGCUACACUGCUUCU [Eternabot solution 5] (Eterna round: R96, puzzle: Exclusion NG 1)	class 0
CUGAGAUCAGGAUAUACAUGAGGAUCACCCAUGUAAAGUAGCUUGCGUACAGGCAGAUGUAGAAGGGAUUUCGG [Mod of JL 5 - Jieux - Exclusion 3] (Eterna round: R97, puzzle: Exclusion 3)	class 0
GUCGUGCGGCUUUGCUGUACGAGUACAUGAGGAUCACCCAUGUAGGAUAUGGCACGCUUUGCGUGCCAGAAGGGCGUGCGUUGG [Excl-NG3-LRO10] (Eterna round: R96, puzzle: Exclusion NG 3)	class 0

====

tested on: MS2 coat protein; assay: apparent KD of MS2 coat protein; higher = weaker reporter binding; conditions: Eterna round: R107; input ligand: arginine 13.2 mM
# binarize apparent KD of MS2 coat protein: threshold 20 nM inclusive, high side TRUE, low side FALSE

biosequence	category_label
GUAUGGAAACAUACUAGGGUAUCAUGAGAUACCAGUACAGAAAUGUACCCUUGGCAGCUCUAGCAUACAUGAGGAUCACCCAUGU [Ex Theophylline A 6]	FALSE
CGGUCGGUCGGCCGGUGAUUAUGGGAUGAAGGAGCGUGGGAAGCUACAGGUAGGUCGCAUCCGAAACAUCACGAUCACGGAUGUU [SSArg A #26Alt-Ms2 Mod]	TRUE
AAAAUCCUACCUGAGGAUCACCCGGGUGAAGGAGCGCCCGAAAGGGCAGGUAGGUCGCACCUGAGGAUCACCCUGGUAAACCUAA [ArgEX 23 #DoubleMS2 #OpenEnded]	TRUE
CGCAACAUGAGGAUCACCCAUGUAAUGACGCGAGGACCGGUACGGCCGCCACUCGCCUGCCAAUGAGCGCAUGCGGCCUGGGUAU [Exclusion Tryp A GF7]	FALSE
GGUGGGACUUGUGAUACCAGCCUAAUUCGAAUCGAAUUGCACAUGAGGAUCACCCAUGUCGGCCCUUGGCAGCAUGAGUAUUUAU [Aagexe]	TRUE
ACGGAGAUUGCUAAAUGUUGGCGAGCGGAUACCAGCCUAUUAUUGGGCCCUUGGCAGCCGACAUGAGGAUCACCCAUGUAAACAA [Berere]	FALSE
